Target: T1, human IL-12 (human, UniProt P29460 23-328; P29459 23-219)
T1 construct: also called Interleukin-12
T1 sequence 1: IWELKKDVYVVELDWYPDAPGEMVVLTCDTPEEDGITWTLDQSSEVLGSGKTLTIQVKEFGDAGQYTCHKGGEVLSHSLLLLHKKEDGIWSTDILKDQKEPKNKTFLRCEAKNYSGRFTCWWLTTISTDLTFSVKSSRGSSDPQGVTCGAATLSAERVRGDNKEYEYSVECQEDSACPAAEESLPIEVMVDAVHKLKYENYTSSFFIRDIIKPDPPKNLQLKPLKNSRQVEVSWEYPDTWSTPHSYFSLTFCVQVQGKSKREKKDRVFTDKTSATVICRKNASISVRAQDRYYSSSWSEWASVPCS
T1 sequence 2: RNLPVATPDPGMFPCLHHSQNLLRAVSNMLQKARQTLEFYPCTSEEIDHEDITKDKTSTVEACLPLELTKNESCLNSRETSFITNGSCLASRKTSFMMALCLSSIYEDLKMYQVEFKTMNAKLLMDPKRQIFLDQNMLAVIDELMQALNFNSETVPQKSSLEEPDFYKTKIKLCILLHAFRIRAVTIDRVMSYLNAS
Assay: SPR (Biacore T200), 37 C, pH 7.4; captured antibody, IL-12 analyte
Value Type: pKd
API: returns pKd as number; meaning -log10 of concentration in mol/L.

Report pKd, nothing else, for this binder: Anti-IL-12 antibody Ab1 variant V37S VH/Y49A, F98L VL (antibody, name in Kabat numbering, V domains shown, Ab1 with VH/VL interface substitutions; Kabat numbering) VH: QVQLVQSGAEVKKPGSSVKVSCKASGGTFSDYYLHWSRQAPGQGLEWMGWIDPENGDTEYAPKFQGRVTITADESTSTAYMELSSLRSEDTAVYYCARNKELRYFDVWGQGTLVTVSS VL: DIVMTQSPLSLPVTPGEPASISCRASQSISINLHWYQQKPGQAPRLLIAFASQSISGVPSRFSGSGSGTDFTLTISSLQPEDFATYYCQQSNSFPLTLGQGTKVEIKR
9.01
